src = PubChem BioAssay AID1159580

assay: chemical genetic growth profiling, strain panel (AID 1159580);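 note: tested at 20 µM; growth read once vehicle control cultures reached saturation at 30 °C; 1 = growth at the plate median or of vehicle wells; lower values mean less growth of the strain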; conditions: S. cerevisiae deletion strains, growth OD, locus YPR141C, strain kar3
The campaign covered roughly 5,500 compounds. About 2,000 (36%) were called active. Inconclusive results (about 18%) are left out. Cut-off read from the data, not from the text of the source: active = normalized growth mostly below about 0.91 (no sharp cut-off); inconclusive = no clear call, values can overlap the other calls; inactive = mostly above about 0.92. This is one part of the list.
Hi! Could you answer with just one of these? 1.0 = active, 0.0 = inactive

Worked set:
- compound: "CCCCOC(=O)c1ccccc1C(=O)OCCCC"
  classification: 0.0
- compound: "O=C1NC(=O)C(=O)C(=O)N1"
  classification: 0.0
- compound: "Nc1ccc(N=Nc2ccccc2)c(N)n1"
  classification: 0.0

Request: // param item: C/C1=C\CCC(=O)C2CC(C)(C)C2CC1 (stereo not given) ; yields the recorded call
Response: 0.0

Request: What call does the record list for `Cc1c(Cl)cccc1Nc1ccccc1C(=O)O` ?
Response: 0.0

Request: Dear colleague, could you share the recorded outcome for `CCCCOC(=O)c1ccccc1C(=O)OCc1ccccc1` when you have a moment?
Response: 0.0

Request: Just curious, what result did `COc1ccc2c(c1)CCC(c1ccccc1)=C2c1ccc(OCCN2CCCC2)cc1` get here?
Response: 0.0

Request: Could you please tell me the result logged for `COC(=O)C[C@H]1C(C)(C)C(=O)[C@@H]2CC3=C(CC[C@]4(C)C3=CC(=O)O[C@H]4c3ccoc3)[C@@]1(C)C2=O` in this assay?
Response: 0.0

* * *

assay: chemical genetic growth profiling, strain panel (AID 1159580);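 note: tested at 20 µM; growth read once vehicle control cultures reached saturation at 30 °C; 1 = growth at the plate median or of vehicle wells; lower values mean less growth of the strain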; conditions: S. cerevisiae deletion strains, growth OD, locus YAL030W, strain snc1, hits give low values
Among all 5,500 compounds or so, about 2,000 (36%) were called active. Roughly 18% stayed inconclusive and do not appear here. The list shows a part of the results.
# key: entry, value: normalized growth
Keep the answer to the number alone.

Solved entries (count: 3):
- input smiles: "NC(N)=NS(=O)(=O)c1ccc(N)cc1"
  observed measurement: 0.979
- input smiles: "O=C1C=C2C=C[C@@H]3C[C@@]2(O1)[C@H]1CCCCN31"
  observed measurement: 0.993
- input smiles: "COc1cc(-c2coc3cc(OC)c(OC)c(OC)c3c2=O)cc(OC)c1OC"
  observed measurement: 1.01

Now take the following compound into account.
Request: Specify measured normalized growth for `CC[C@H](C)C(=O)O[C@H]1C[C@@H](C)C=C2C=C[C@H](C)[C@H](CC[C@@H]3C[C@@H](O)CC(=O)O3)[C@H]21` .
Response: 1.01

* * *

Property: normalized growth; scope: individual molecules
assay: chemical genetic growth profiling, strain panel (AID 1159580);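 note: tested at 20 µM; growth read once vehicle control cultures reached saturation at 30 °C; 1 = growth at the plate median or of vehicle wells; lower values mean less growth of the strain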; conditions: S. cerevisiae deletion strains, growth OD, locus YCL061C, strain MRC1 (second series), hits give low values
Hit rate of the full screen: of about 5,500 compounds, about 2,000 (36%) were called active. Inconclusive results (about 18%) are left out. The list shows a part of the results.
API doc: respond with a numeric literal and nothing else, no unit.

Example results:
- molecule: "OCc1cnc[nH]1"
  observed measurement: 1
- molecule: "CC(C)COCC(CN(Cc1ccccc1)c1ccccc1)N1CCCC1 (stereo unspecified)"
  observed measurement: 1.01
- molecule: "COC(=O)[C@@H](N)Cc1ccc(O)c(O)c1"
  observed measurement: 0.971
- molecule: "CC(C)C(=O)Nc1ccc([N+](=O)[O-])c(C(F)(F)F)c1"
  observed measurement: 0.999

Request: Hello, please tell me recorded normalized growth for this one: `CC1(C)NC(=O)N(c2ccc([N+](=O)[O-])c(C(F)(F)F)c2)C1=O`
Response: 1

Request: Using known records, supply normalized growth for `C[C@@H](CN1CCC(Cc2ccccc2)CC1)[C@@H](O)c1ccc(O)cc1`
Response: 0.996
